# morphology score listing for each entry below
Tested on: Vero E6 infected with SARS-CoV-2
experiment description: morphology score (similarity to uninfected cells); higher = more like uninfected cells
measurement conditions: 24 h

[
  {
    "molecule": "c1ccc2c(Oc3nc(Nc4ccc(N5CCOCC5)cc4)c4ncn(C5CCCCC5)c4n3)cccc2c1 [purmorphamine] (10 µM)",
    "morphology score": -0.227
  },
  {
    "molecule": "CC(=O)NCCCS(=O)(=O)O [acamprosate] (10 µM)",
    "morphology score": 0.0831
  },
  {
    "molecule": "O=C(O)c1c2ccccc2cc2ccccc12 [9-anthracenecarboxylic-acid] (10 µM)",
    "morphology score": 0.252
  },
  {
    "molecule": "CC(=O)C(=Cc1cc(O)c(O)c([N+](=O)[O-])c1)C(C)=O [nitecapone] (10 µM)",
    "morphology score": 0.103
  }
]

====

System: Vero E6 infected with SARS-CoV-2
experiment description: morphology score (similarity to uninfected cells); higher = more like uninfected cells
measurement conditions: 24 h
Assign classes using reported morphology score values and the ranges bottom range: < -0.02; center range: ≥ -0.02 and < 0.1; top range: ≥ 0.1, please.

[
  {
    "molecule": "Cc1ccc(-c2ccc(F)cc2COc2ccc(CCC(=O)O)cc2)cc1 (10 µM)",
    "assay target": "Vero E6 infected with SARS-CoV-2",
    "assigned category": "bottom range"
  },
  {
    "molecule": "CC(=O)NCCCOc1ccc(C(=O)N2CCC(N3C(=O)CCc4ccccc43)CC2)cc1 (10 µM)",
    "assay target": "Vero E6 infected with SARS-CoV-2",
    "assigned category": "top range"
  },
  {
    "molecule": "CC1(C)CCC(C)(C)c2cc(C(=O)Nc3ccc(C(=O)O)cc3)ccc21 (10 µM)",
    "assay target": "Vero E6 infected with SARS-CoV-2",
    "assigned category": "bottom range"
  },
  {
    "molecule": "CN(C)C(=O)Oc1cccc([N+](C)(C)C)c1 [neostigmine] (10 µM)",
    "assay target": "Vero E6 infected with SARS-CoV-2",
    "assigned category": "bottom range"
  },
  {
    "molecule": "CC(=O)O[C@H]1C[C@@]2(C)[C@@H](C[C@@H](O)[C@H]3[C@@]4(C)CC[C@@H](O)[C@@H](C)[C@@H]4CC[C@@]32C)/C1=C(\\CCC=C(C)C)C(=O)O [fusidic-acid] (10 µM)",
    "assay target": "Vero E6 infected with SARS-CoV-2",
    "assigned category": "center range"
  },
  {
    "molecule": "Cc1ccc(-c2nn(C(C)(C)CNC(=O)c3ncccc3C)c3ncnc(N)c23)cc1 [WEHI-345-analog] (0.833333 µM)",
    "assay target": "Vero E6 infected with SARS-CoV-2",
    "assigned category": "bottom range"
  },
  {
    "molecule": "c1ccc(CN2CCC3(CCc4ccccc43)CC2)cc1 (10 µM)",
    "assay target": "Vero E6 infected with SARS-CoV-2",
    "assigned category": "top range"
  },
  {
    "molecule": "CC(CC(C(N)=O)(c1ccccc1)c1ccccc1)N(C)C (stereo not given) [aminopentamide] (10 µM)",
    "assay target": "Vero E6 infected with SARS-CoV-2",
    "assigned category": "center range"
  },
  {
    "molecule": "Cc1cccc(C)c1NC1=NCCCS1 [xylazine] (10 µM)",
    "assay target": "Vero E6 infected with SARS-CoV-2",
    "assigned category": "top range"
  },
  {
    "molecule": "Oc1cc(O)c2c(c1)O[C@H](c1ccc(O)c(O)c1)[C@H](O)[C@H]2c1c(O)cc(O)c2c1O[C@H](c1ccc(O)c(O)c1)[C@H](O)C2 [procyanidin-B-2] (10 µM)",
    "assay target": "Vero E6 infected with SARS-CoV-2",
    "assigned category": "top range"
  },
  {
    "molecule": "NC[C@H]1O[C@H](O[C@H]2[C@H](O)[C@@H](O[C@H]3O[C@H](CO)[C@@H](O)[C@H](N)[C@H]3O)[C@H](N)C[C@@H]2N)[C@H](N)C[C@@H]1O [tobramycin] (10 µM)",
    "assay target": "Vero E6 infected with SARS-CoV-2",
    "assigned category": "center range"
  },
  {
    "molecule": "CC(=O)N(c1onc(C)c1C)S(=O)(=O)c1ccc(N)cc1 [sulfisoxazole-acetyl] (10 µM)",
    "assay target": "Vero E6 infected with SARS-CoV-2",
    "assigned category": "top range"
  },
  {
    "molecule": "CO[C@@]1(NC(=O)CSCC#N)C(=O)N2C(C(=O)O)=C(CSc3nnnn3C)CS[C@@H]21 [cefmetazole] (10 µM)",
    "assay target": "Vero E6 infected with SARS-CoV-2",
    "assigned category": "top range"
  },
  {
    "molecule": "Cc1nc2ccc(NC(=O)Nc3ccnc4cccnc34)cc2o1 (10 µM)",
    "assay target": "Vero E6 infected with SARS-CoV-2",
    "assigned category": "center range"
  },
  {
    "molecule": "COc1ccc(-c2cc(=O)c3c(O)cc(O)cc3o2)cc1O [diosmetin] (10 µM)",
    "assay target": "Vero E6 infected with SARS-CoV-2",
    "assigned category": "top range"
  },
  {
    "molecule": "CCOC(CN1CCN(CC(C)C(=O)c2ccccc2)CC1)c1ccccc1 (stereo not given) [eprazinone] (10 µM)",
    "assay target": "Vero E6 infected with SARS-CoV-2",
    "assigned category": "top range"
  },
  {
    "molecule": "FC(F)c1nc2ccccc2n1-c1nc(N2CCOCC2)nc(N2CCOCC2)n1 (10 µM)",
    "assay target": "Vero E6 infected with SARS-CoV-2",
    "assigned category": "bottom range"
  },
  {
    "molecule": "C[N+](C)(C)[C@@H](Cc1c[nH]c(=S)[nH]1)C(=O)O [L-ergothioneine] (10 µM)",
    "assay target": "Vero E6 infected with SARS-CoV-2",
    "assigned category": "center range"
  },
  {
    "molecule": "O=C(c1cccc(Br)c1)N1CCC(N2CCCC2)CC1 (10 µM)",
    "assay target": "Vero E6 infected with SARS-CoV-2",
    "assigned category": "center range"
  },
  {
    "molecule": "CCCCN1CCC(CCC(=O)c2cc(Cl)c(N)cc2OC)CC1 (10 µM)",
    "assay target": "Vero E6 infected with SARS-CoV-2",
    "assigned category": "top range"
  },
  {
    "molecule": "O=C(NC1CCN(CCCCC2(C(=O)NCC(F)(F)F)c3ccccc3-c3ccccc32)CC1)c1ccccc1-c1ccc(C(F)(F)F)cc1 [lomitapide] (0.833333 µM)",
    "assay target": "Vero E6 infected with SARS-CoV-2",
    "assigned category": "top range"
  },
  {
    "molecule": "CC(C)NCC(O)c1ccc2ccccc2c1 (stereo not given) [pronethalol] (10 µM)",
    "assay target": "Vero E6 infected with SARS-CoV-2",
    "assigned category": "bottom range"
  },
  {
    "molecule": "Cc1ncc(CSSCc2cnc(C)c(O)c2CO)c(CO)c1O [pyritinol] (10 µM)",
    "assay target": "Vero E6 infected with SARS-CoV-2",
    "assigned category": "center range"
  },
  {
    "molecule": "CCN(CC)CCCCN1c2ccccc2Oc2ccc(Cl)cc21 (0.833333 µM)",
    "assay target": "Vero E6 infected with SARS-CoV-2",
    "assigned category": "top range"
  },
  {
    "molecule": "Cc1cc(C)cc(C(=O)N(C)[C@H](Cc2ccc(-c3ccccc3)cc2)C(=O)N[C@@H](Cc2c[nH]c3ccccc23)C(=O)O)c1 (10 µM)",
    "assay target": "Vero E6 infected with SARS-CoV-2",
    "assigned category": "center range"
  },
  {
    "molecule": "COc1ccc(-c2cc(C(F)F)nn2-c2ccc(S(N)(=O)=O)cc2)cc1F [deracoxib] (10 µM)",
    "assay target": "Vero E6 infected with SARS-CoV-2",
    "assigned category": "top range"
  },
  {
    "molecule": "Cc1ccccc1N(C)C(=O)c1ccc([S+]([O-])c2nccs2)c([N+](=O)[O-])c1 (stereo not given) (0.833333 µM)",
    "assay target": "Vero E6 infected with SARS-CoV-2",
    "assigned category": "bottom range"
  },
  {
    "molecule": "CCc1nc(N)nc(N)c1-c1ccc(Cl)cc1 [pyrimethamine] (0.833333 µM)",
    "assay target": "Vero E6 infected with SARS-CoV-2",
    "assigned category": "center range"
  },
  {
    "molecule": "O=C(O)c1ccc(N2N=C(Cc3ccccc3)/C(=C\\c3ccc(-c4ccccc4F)o3)C2=O)cc1 (10 µM)",
    "assay target": "Vero E6 infected with SARS-CoV-2",
    "assigned category": "bottom range"
  },
  {
    "molecule": "Cc1ccc2c(c1)=C(c1ccccc1)C(C1=NN(C(=O)CCC(=O)O)C(c3ccc(Br)cc3)C1)C(=O)N=2 (stereo not given) (10 µM)",
    "assay target": "Vero E6 infected with SARS-CoV-2",
    "assigned category": "bottom range"
  }
]
